PROTOCOL SUMMARY: Single dose PK (AUCinf) in Phase 1 studies, effect of meal type on Compound 1 exposure and variability
Assay type: in vivo, human
TEST SETTINGS: human, in vivo, oral, 100 mg, 100 mg (12% drug load), light-fat meal, N=20; read-out: Compound 1 AUCinf (% CV) Fed
PROPERTY LABEL: AUC(0-inf) (ng·h/mL)

• O=C(O)c1ccnc(N2CC(O)(c3ccc(OCc4c(-c5c(Cl)cccc5Cl)noc4C4CC4)cc3Cl)C2)c1 [Compound 1, cilofexor] = 4170

---

PROTOCOL SUMMARY: Single dose PK (AUCinf) in Phase 1 studies, effect of meal type on Compound 1 exposure and variability
Type: in vivo, human
TEST SETTINGS: human, in vivo, oral, 100 mg, 100 mg (12% drug load), high-fat meal, N=20; read-out: Compound 1 AUCinf (% CV) Fed
PROPERTY LABEL: AUC(0-inf) (ng·h/mL)

- O=C(O)c1ccnc(N2CC(O)(c3ccc(OCc4c(-c5c(Cl)cccc5Cl)noc4C4CC4)cc3Cl)C2)c1 [Compound 1, cilofexor]: 5930

---

PROTOCOL SUMMARY: Single dose PK (AUCinf) in Phase 1 studies, effect of meal type on Compound 1 exposure and variability
Format: in vivo, human
TEST SETTINGS: human, in vivo, oral, 100 mg, 100 mg (20% drug load), moderate-fat meal, N=12; read-out: Compound 1 AUCinf (% CV) Fed
PROPERTY LABEL: AUC(0-inf) (µg·h/mL)

* O=C(O)c1ccnc(N2CC(O)(c3ccc(OCc4c(-c5c(Cl)cccc5Cl)noc4C4CC4)cc3Cl)C2)c1 [Compound 1, cilofexor] | 5.02

---

PROTOCOL SUMMARY: Single dose PK (AUCinf) in Phase 1 studies, effect of meal type on Compound 1 exposure and variability
Assay type: in vivo, human
TEST SETTINGS: human, in vivo, oral, 10 mg, 10 mg (5% drug load), fasted, N=12; read-out: Compound 1 AUCinf (% CV) Fasted
Method: Part B (Adaptive Cohorts) is as follows: Based on available safety, pharmacokinetic (“PK”), and/or pharmacodynamic (“PD”) data from Part A, total daily doses for Part B (Cohorts 5 and 8) were chosen between 1 and 600 mg as well as frequency of dosing (once daily or twice a day) and meal conditions for dosing (fasted, low fat, moderate fat, or high fat meal). Once determined, dose level, frequency of dosing, and meal conditions were consistent within a cohort. […]
PROPERTY LABEL: AUC(0-inf)

- O=C(O)c1ccnc(N2CC(O)(c3ccc(OCc4c(-c5c(Cl)cccc5Cl)noc4C4CC4)cc3Cl)C2)c1 [Compound 1, cilofexor]: 1260 ng·h/mL

---

PROTOCOL SUMMARY: Single dose PK (AUCinf) in Phase 1 studies, effect of meal type on Compound 1 exposure and variability
Type: in vivo, human
TEST SETTINGS: human, in vivo, oral, 30 mg (20% drug load), high-fat meal, + SEL 18 mg, N=20; read-out: Compound 1 AUCinf (% CV) Fed
Description: Part B (Adaptive Cohorts) is as follows: Based on available safety, pharmacokinetic (“PK”), and/or pharmacodynamic (“PD”) data from Part A, total daily doses for Part B (Cohorts 5 and 8) were chosen between 1 and 600 mg as well as frequency of dosing (once daily or twice a day) and meal conditions for dosing (fasted, low fat, moderate fat, or high fat meal). Once determined, dose level, frequency of dosing, and meal conditions were consistent within a cohort. […]
PROPERTY LABEL: AUC(0-inf) (ng·h/mL)

• O=C(O)c1ccnc(N2CC(O)(c3ccc(OCc4c(-c5c(Cl)cccc5Cl)noc4C4CC4)cc3Cl)C2)c1 [Compound 1, cilofexor] = 1920
